Data provenance: the supplement of paper PMC9170038

Test system: MS2 coat protein
Experiment: apparent KD of MS2 coat protein; higher = weaker reporter binding
Settings: Eterna round: R107; input ligand: arginine 13.2 mM
Binary call on apparent KD of MS2 coat protein: 1.0 from 30 nM upward, 0.0 beneath that.

**Query** Assess whether reported apparent KD of MS2 coat protein for UGGAGUAGGGUAAAUAGGAUAAGUACAGAAGGAGCGCGAAUAAACGCAGGUAGGUCGCUGGAACACAUGAGGAUCACCCAUGUUG [Same State Arginine A GF 24] sits at 30 nM or higher.
**Result** 0.0

**Query** Assess whether reported apparent KD of MS2 coat protein for AAAUAAAUACAUGAGGAUCACCCAUGUGAAGGAGCGCCCGUUAGGGCAGGUAGGUCGCACAUGAAAGGGAAGCGAAAGAAAUAAU [ArgEX 15 #OpenEnded] sits at 30 nM or higher.
**Result** 0.0

**Query** Assess whether reported apparent KD of MS2 coat protein for ACCUGCGUUUGAUUCUAUCUGACGCAGGUUCGAGGACCGGUACGGCCGCCACUCGGACAUGAGGAUCACCCAUGUUUGACAUGGG [#03 Exclusion Tryptophan A] sits at 30 nM or higher.
**Result** 0.0

**Query** Assess whether reported apparent KD of MS2 coat protein for ACAUGAGGAUCACCCAUGUACAUCACCCGACGAGGACCGGUACGGCCGCCACUCGGGUAUAUAUAUACAUCGGGUGAUUUUACGU [#22 Tryptophan A Same State] sits at 30 nM or higher.
**Result** 0.0

**Query** Assess whether reported apparent KD of MS2 coat protein for UCACAUGAGGAUCACCCAUGUACAGGCGAUACCAGCCGUACAUUGGGCCCUUGGCAGCGCACCGAGACCUUUUAAAGCACUUCGG [Er] sits at 30 nM or higher.
**Result** 1.0

**Query** Assess whether reported apparent KD of MS2 coat protein for GACAUGAGGAUCACCCAUGUGUAACCAGAAGGAGCGUGCGAAAGCACAGGUAGGUCGCUGGUGGGUUUAGGUUUAGUAGGUGUUC [SSAA NP+V+V2 #3] sits at 30 nM or higher.
**Result** 1.0

**Query** Assess whether reported apparent KD of MS2 coat protein for AGAAUAACACAUGAGGAUCACCCAUGUGAUACCAGCUAGGAAACUAGCCCUUGGCAGCACAUAAUCCUCAUGAAUGUGCUGAAUA [(M1)-(M2)-(T1)-(T2)-(M)'-(T)'_Design3_2/19/17] sits at 30 nM or higher.
**Result** 1.0

**Query** Assess whether reported apparent KD of MS2 coat protein for AUACAUGAGGAUCACCCAUGUUAUAGUGAAGGAGCGACGUUUAUGUCAGGUAGGUCGCACUGUUGUUUAAUGAUUCUUGGAUCUU [#21 Exclusion - Arginine A] sits at 30 nM or higher.
**Result** 0.0

**Query** Assess whether reported apparent KD of MS2 coat protein for GUGGGACAUGAGGAUCACCCAUGUGACGAUACCAGUCAAUUGAUGGACCCUUGGCAGCGUUGGUAUUGCGGGUAGGCGAGAUAAG [theeternabot_sameState_MS2_Theo_A_3] sits at 30 nM or higher.
**Result** 0.0

**Query** Assess whether reported apparent KD of MS2 coat protein for GAAUAUUACAUGAGGAUCACCCAUGUAGAUACCAGCCUUGAUUGUGGCCCUUGGCAGCUACGCCGUGAAUGCCUCAGUUGCUUAC [Atidi] sits at 30 nM or higher.
**Result** 1.0

**Query** Assess whether reported apparent KD of MS2 coat protein for UUAUGCAGGUCGGCCGCCACUACACACAUGAGGAUCACCCAUGUAGUUACUGGGUGAAGUGGCAGUAGGACCGGGACCCGCACAU [Brourdmod21] sits at 30 nM or higher.
**Result** 1.0
